# System: Schistosoma mansoni
# ASSAY_TEXT: Concentration required to kill 50% of 42 day old worms 5 days after drug treatment.
# Assay type: functional, organism-based
# CONDITIONS: Puerto Rican, 120 h
pEC50: −log10 of the molar value.
# pEC50 >= 7 gives condition met, anything below gives condition not met

// below: answered compounds
CC(C)c1cccc(-c2cn3c(-c4ccc(O)c(F)c4)cnc3cn2)c1
condition not met
COc1ccc(-c2cnc3cnc(-c4cccc(C(C)C)c4)cn23)cc1O
condition not met
COc1ccc(-c2cnc3ccc(-c4cccc(C(C)C)c4)nn23)cc1O
condition not met
COc1cc(O)ccc1-c1c(C(C)C)nc2cnc(-c3cccc(C(F)(F)F)c3)cn12
condition not met
Cc1nc2cnc(-c3ccc(F)c(S(F)(F)(F)(F)F)c3)cn2c1-c1ccc2[nH]ncc2c1F
condition met

Is pEC50 at least 7? Consider COc1ccc(-c2cnc3cnc(-c4cccc(C(C)C)c4)cn23)cc1OC
condition not met

Check this compound for pEC50 at or above 7: CC(C)Oc1cccc(-c2cn3c(-c4ccc5[nH]ncc5c4F)c(C(F)(F)F)nc3cn2)c1
condition met
